Entries and their IC50
biological target: human MMP-2 (amino acids 1-660) (Homo sapiens, UniProt P08253); construct: human MMP-2 (amino acids 1-660); made in house; assay: MMP dose response assay for determining IC50, MMP-2; type: biochemical; settings: recombinant enzyme, fluorescent-quench substrate 100 nM; read-out: MMP-2
Sequence (P08253 110-660): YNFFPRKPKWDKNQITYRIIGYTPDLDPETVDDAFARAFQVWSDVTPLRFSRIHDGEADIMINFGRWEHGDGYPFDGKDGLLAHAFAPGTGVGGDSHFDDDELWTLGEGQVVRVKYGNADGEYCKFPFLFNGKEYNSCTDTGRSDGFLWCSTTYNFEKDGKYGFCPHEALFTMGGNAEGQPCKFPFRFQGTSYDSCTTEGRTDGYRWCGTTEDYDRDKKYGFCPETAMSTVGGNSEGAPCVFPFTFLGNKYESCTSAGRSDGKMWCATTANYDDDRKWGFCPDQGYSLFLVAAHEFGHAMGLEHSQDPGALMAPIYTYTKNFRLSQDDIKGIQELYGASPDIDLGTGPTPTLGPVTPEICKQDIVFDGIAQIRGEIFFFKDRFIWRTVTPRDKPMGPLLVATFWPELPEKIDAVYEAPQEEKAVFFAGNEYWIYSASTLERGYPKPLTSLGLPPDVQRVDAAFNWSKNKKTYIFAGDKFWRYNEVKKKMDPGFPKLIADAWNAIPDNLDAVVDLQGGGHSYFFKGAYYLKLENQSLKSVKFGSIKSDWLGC
Hi! Could you send only the number? It should be in nM, unit omitted.

# compound_structure_string, parameter, measured
measured = [
    ("CS(=O)(=O)N(C[C@H](O)C(=O)NO)c1ccc(C#Cc2cccs2)cc1", "IC50", 103),
    ("CN(C)[C@H]1CCN([C@@H](CN(c2ccc(Oc3ccc(C(F)(F)F)cc3)cc2)S(C)(=O)=O)C(=O)NO)C1", "IC50", 17.7),
    ("Cc1ccc(Oc2ccc(N(C[C@H](Nc3ccc(F)cc3)C(=O)NO)S(C)(=O)=O)cc2)cc1", "IC50", 64.4),
]

Look up IC50: CS(=O)(=O)N(C[C@H](Nc1cccc(F)c1)C(=O)NO)c1ccc(Oc2ccc(C(F)(F)F)cc2)cc1 466

Look up IC50: CS(=O)(=O)N(C[C@@H](C(=O)NO)N1CCN(c2ccc(Cl)cc2)CC1)c1ccc(Oc2ccc(C(F)(F)F)cc2)cc1 119

Look up IC50: Cc1ccc(Oc2ccc(N(C[C@H](Nc3ccc(OC(F)(F)F)cc3)C(=O)NO)S(C)(=O)=O)cc2)cc1 877

Look up IC50: Cc1ccc(Oc2ccc(N(C[C@H](N[C@@H](C)c3ccccc3)C(=O)NO)S(C)(=O)=O)cc2)cc1 11.7

* * *

molecular target: human MMP-13 (amino acids 103-268) (Homo sapiens, UniProt P45452); construct: human MMP-13 (amino acids 103-268); assay: MMP dose response assay for determining IC50, MMP-13; details: recombinant enzyme, fluorescent-quench substrate 100 nM
Entries and their pIC50
As a rule, pIC50 stands for the negative log10 of the concentration, concentration in M.

Before answering, review these 3 worked examples.
# compound_structure_string, pIC50
rows = [
    ("Cc1ccc(Oc2ccc(N(C[C@H](NCCc3c[nH]c4ccccc34)C(=O)NO)S(C)(=O)=O)cc2)cc1", 6.07),
    ("CC(C)N(C)[C@@H](CN(c1ccc(Oc2ccc(C(F)(F)F)cc2)cc1)S(C)(=O)=O)C(=O)NO", 7.91),
    ("Cc1ccc(Oc2ccc(N(C[C@@H](C(=O)NO)N3CCOCC3)S(C)(=O)=O)cc2)cc1", 8.45),
]

Turning to the following compound.
Request: pIC50, test system human MMP-13 (amino acids 103-268) (Homo sapiens, UniProt P45452), entry Cc1ccc(Oc2ccc(N(C[C@@H](C(=O)NO)N3CCC(O)(c4ccc(Br)cc4)CC3)S(C)(=O)=O)cc2)cc1 6.39

* * *

Entries and their IC50
target: human MMP-9 (amino acids 107-446) (Homo sapiens, UniProt P14780); construct: human MMP-9 (amino acids 107-446); made in house; test: MMP dose response assay for determining IC50, MMP-9; assay type: biochemical; settings: recombinant enzyme, fluorescent-quench substrate 100 nM; read-out: MMP-9
Sequence (P14780 107-446): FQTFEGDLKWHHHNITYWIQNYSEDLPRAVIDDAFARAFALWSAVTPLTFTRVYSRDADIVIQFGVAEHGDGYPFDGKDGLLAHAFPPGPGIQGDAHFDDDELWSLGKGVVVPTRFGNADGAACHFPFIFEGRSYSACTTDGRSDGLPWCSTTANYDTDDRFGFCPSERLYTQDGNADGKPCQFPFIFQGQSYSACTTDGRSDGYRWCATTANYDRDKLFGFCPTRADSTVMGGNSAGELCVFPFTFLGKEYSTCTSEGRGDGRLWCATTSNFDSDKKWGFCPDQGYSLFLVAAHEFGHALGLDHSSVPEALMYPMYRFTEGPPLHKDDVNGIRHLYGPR
Hi! Could you send only the number? It should be in nM, unit omitted.

Before answering, review these 3 worked examples.
# compound_structure_string, display_unit, IC50
rows = [
    ("Cc1ccc(Oc2ccc(N(C[C@@H](NCc3ccccc3)C(=O)NO)S(C)(=O)=O)cc2)cc1", "nM", 93.3),
    ("Cc1ccc(Oc2ccc(N(C[C@H](N)C(=O)NO)S(C)(=O)=O)cc2)cc1", "nM", 120),
    ("CN1CCN([C@@H](CN(c2ccc(Oc3ccc(Cl)cc3)cc2)S(C)(=O)=O)C(=O)NO)CC1", "nM", 2.39),
]

Look up IC50: COC[C@H]1CCCN1[C@@H](CN(c1ccc(Oc2ccc(C(F)(F)F)cc2)cc1)S(C)(=O)=O)C(=O)NO 3.16

Look up IC50: CS(=O)(=O)N(C[C@@H](C(=O)NO)N1CCCCC1)c1ccc(Oc2ccc(C(F)(F)F)cc2)cc1 2.34

Look up IC50: CS(=O)(=O)N(C[C@H](O)C(=O)NO)c1ccc(C#Cc2ccc(Cl)cc2)cc1 47.3

Look up IC50: CC(=O)N1CCN([C@@H](CN(c2ccc(Oc3ccc(C(F)(F)F)cc3)cc2)S(C)(=O)=O)C(=O)NO)CC1 4.81

Look up IC50: CCCS(=O)(=O)N(C[C@H](O)C(=O)NO)c1ccc(Oc2ccc(C)cc2)cc1 124

Look up IC50: CS(=O)(=O)N(C[C@@H](C(=O)NO)N1CCC(O)(c2ccc(Br)cc2)CC1)c1ccc(Oc2ccc(C(F)(F)F)cc2)cc1 37.1

Look up IC50: CS(=O)(=O)N(C[C@H](O)C(=O)N(O)CCN1CCOCC1)c1ccc(Oc2ccc(Cl)cc2)cc1 206
